Origin of measurements: ChEMBL document CHEMBL4828740

Below, each entry is listed alongside its reported pKi.
Target: Hepatitis C virus serine protease, NS3/NS4A (Hepatitis C virus, UniProt A3EZI9+D2K2A8)
Assay: Inhibition of HCV GT-1a NS3/4a protease using Ac-DE-D(Edans)-EE-Abu-c-[COO]-AS-K(Dabcy1)-NH2 preincubated for 1 hr followed by substrate addition
Assay type: protein complex, Hepatitis C virus subtype 1a
pKi: −log10 of the molar value.
parameter: pKi

- structureAsSmiles: "CCC(C)(C)OC(=O)N[C@H]1CCCCC/C=C/[C@@H]2C[C@@]2(C(=O)NS(=O)(=O)C2(C)CC2)NC(=O)[C@@H]2C[C@@H](Oc3nc4ccc(OC)cc4nc3C(F)(F)F)CN2C1=O"
  parameter: "pKi"
  observedMeasurement: 8.57
- structureAsSmiles: "COc1ccc2nc(O[C@@H]3C[C@H]4C(=O)N[C@]5(C(=O)NS(=O)(=O)C6(C)CC6)C[C@H]5/C=C/CCCCC[C@H](NC(=O)OCC(C)C)C(=O)N4C3)c(C(F)(F)F)nc2c1"
  parameter: "pKi"
  observedMeasurement: 8.40
- structureAsSmiles: "COc1ccc2nc(C)c(O[C@@H]3C[C@H]4C(=O)N[C@]5(C(=O)NS(=O)(=O)C6(C)CC6)C[C@H]5/C=C/CCCCC[C@H](NC(=O)OCC5(C)CC5)C(=O)N4C3)nc2c1"
  parameter: "pKi"
  observedMeasurement: 9.15
- structureAsSmiles: "COc1ccc2nc(O[C@@H]3C[C@H]4C(=O)N[C@]5(C(=O)NS(=O)(=O)C6(C)CC6)C[C@H]5/C=C/CCCCC[C@H](NC(=O)O[C@@H]5CCC[C@H]5F)C(=O)N4C3)c(C(F)(F)F)nc2c1"
  parameter: "pKi"
  observedMeasurement: 8.10
- structureAsSmiles: "COc1ccc2nc(C)c(O[C@@H]3C[C@H]4C(=O)N[C@]5(C(=O)NS(=O)(=O)C6(C)CC6)C[C@H]5/C=C/CCCCC[C@H](NC(=O)OC5(C)CC5)C(=O)N4C3)nc2c1"
  parameter: "pKi"
  observedMeasurement: 8.36

----------
Test system: Hepatitis C virus
Assay: Antiviral activity against HCV genotype 1b harboring D168A mutant infected in human Huh7 cells incubated for 96 hrs by luciferase assay
Type: functional, organism-based, Hepacivirus hominis
Conditions: subtype 1b, Huh-7, 96 h
pEC50: −log10 of the molar value.

- molecule: "COc1ccc2nc(C)c(O[C@@H]3C[C@H]4C(=O)N[C@]5(C(=O)NS(=O)(=O)C6(C)CC6)C[C@H]5/C=C/CCCCC[C@H](NC(=O)O[C@H](C)C(F)(F)F)C(=O)N4C3)nc2c1"
  pEC50: 8.60
- molecule: "COc1ccc2nc(O[C@@H]3C[C@H]4C(=O)N[C@]5(C(=O)NS(=O)(=O)C6(C)CC6)C[C@H]5/C=C/CCCCC[C@H](NC(=O)O[C@@H](C)C(F)(F)F)C(=O)N4C3)c(C(F)(F)F)nc2c1"
  pEC50: 7.74
- molecule: "COc1ccc2nc(C)c(O[C@@H]3C[C@H]4C(=O)N[C@]5(C(=O)NS(=O)(=O)C6(C)CC6)C[C@H]5/C=C/CCCCC[C@H](NC(=O)OC5C[C@@H]6C[C@@H]6C5)C(=O)N4C3)nc2c1 (stereo partly drawn)"
  pEC50: 9.30

----------
Molecular target: Hepatitis C virus serine protease, NS3/NS4A (Hepatitis C virus, UniProt A3EZI9+D2K2A8)
Assay: Inhibition of HCV GT-1a NS3/4a protease using Ac-DE-D(Edans)-EE-Abu-c-[COO]-AS-K(Dabcy1)-NH2 preincubated for 1 hr followed by substrate addition
Type: protein complex, Hepatitis C virus subtype 1a
Below, each entry is listed alongside its reported log10 of Ki.
parameter: log10 of Ki (log10 of the value in nM)

- molecule: "COc1ccc2nc(C)c(O[C@@H]3C[C@H]4C(=O)N[C@]5(C(=O)NS(=O)(=O)C6(C)CC6)C[C@H]5/C=C/CCCCC[C@H](NC(=O)OC(C)C)C(=O)N4C3)nc2c1"
  parameter: "log10 of Ki"
  observedMeasurement: 0.32
- molecule: "COc1ccc2nc(C)c(O[C@@H]3C[C@H]4C(=O)N[C@]5(C(=O)NS(=O)(=O)C6(C)CC6)C[C@H]5/C=C/CCCCC[C@H](NC(=O)O[C@@H](C)C(F)(F)F)C(=O)N4C3)nc2c1"
  parameter: "log10 of Ki"
  observedMeasurement: -0.15
- molecule: "COc1ccc2nc(C)c(O[C@@H]3C[C@H]4C(=O)N[C@]5(C(=O)NS(=O)(=O)C6(C)CC6)C[C@H]5/C=C/CCCCC[C@H](NC(=O)O[C@@H]5CCC[C@H]5F)C(=O)N4C3)nc2c1"
  parameter: "log10 of Ki"
  observedMeasurement: 0.36
- molecule: "COc1ccc2nc(C)c(O[C@@H]3C[C@H]4C(=O)N[C@]5(C(=O)NS(=O)(=O)C6(C)CC6)C[C@H]5/C=C/CCCCC[C@H](NC(=O)O[C@H](C)C(F)(F)F)C(=O)N4C3)nc2c1"
  parameter: "log10 of Ki"
  observedMeasurement: 0.04
- molecule: "COc1ccc2nc(O[C@@H]3C[C@H]4C(=O)N[C@]5(C(=O)NS(=O)(=O)C6(C)CC6)C[C@H]5/C=C/CCCCC[C@H](NC(=O)OCC5(C)CC5(F)F)C(=O)N4C3)c(C(F)(F)F)nc2c1 (stereo not given in full)"
  parameter: "log10 of Ki"
  observedMeasurement: 0.32
- molecule: "COc1ccc2nc(O[C@@H]3C[C@H]4C(=O)N[C@]5(C(=O)NS(=O)(=O)C6(C)CC6)C[C@H]5/C=C/CCCCC[C@H](NC(=O)O[C@H](C)C(C)C)C(=O)N4C3)c(C(F)(F)F)nc2c1"
  parameter: "log10 of Ki"
  observedMeasurement: 0.48
- molecule: "COc1ccc2nc(C)c(O[C@@H]3C[C@H]4C(=O)N[C@]5(C(=O)NS(=O)(=O)C6(C)CC6)C[C@H]5/C=C/CCCCC[C@H](NC(=O)OC5(C)CCCC5)C(=O)N4C3)nc2c1"
  parameter: "log10 of Ki"
  observedMeasurement: 0.26
- molecule: "COc1ccc2nc(O[C@@H]3C[C@H]4C(=O)N[C@]5(C(=O)NS(=O)(=O)C6(C)CC6)C[C@H]5/C=C/CCCCC[C@H](NC(=O)OCC5(C)CC5)C(=O)N4C3)c(C(F)(F)F)nc2c1"
  parameter: "log10 of Ki"
  observedMeasurement: 0.46
- molecule: "COc1ccc2nc(O[C@@H]3C[C@H]4C(=O)N[C@]5(C(=O)NS(=O)(=O)C6(C)CC6)C[C@H]5/C=C/CCCCC[C@H](NC(=O)OC5(C)CCCC5)C(=O)N4C3)c(C(F)(F)F)nc2c1"
  parameter: "log10 of Ki"
  observedMeasurement: -0.05
- molecule: "COc1ccc2nc(O[C@@H]3C[C@H]4C(=O)N[C@]5(C(=O)NS(=O)(=O)C6(C)CC6)C[C@H]5/C=C/CCCCC[C@H](NC(=O)OC5C[C@@H]6C[C@@H]6C5)C(=O)N4C3)c(C(F)(F)F)nc2c1 (stereo not given in full)"
  parameter: "log10 of Ki"
  observedMeasurement: -0.70
- molecule: "COc1ccc2nc(O[C@@H]3C[C@H]4C(=O)N[C@]5(C(=O)NS(=O)(=O)C6(C)CC6)C[C@H]5/C=C/CCCCC[C@H](NC(=O)OC5(C(F)(F)F)CCC5)C(=O)N4C3)c(C(F)(F)F)nc2c1"
  parameter: "log10 of Ki"
  observedMeasurement: 0.30
- molecule: "COc1ccc2nc(C)c(O[C@@H]3C[C@H]4C(=O)N[C@]5(C(=O)NS(=O)(=O)C6(C)CC6)C[C@H]5/C=C/CCCCC[C@H](NC(=O)OCC5(C)CC5(F)F)C(=O)N4C3)nc2c1 (stereo not given in full)"
  parameter: "log10 of Ki"
  observedMeasurement: 0.49
- molecule: "COc1ccc2nc(O[C@@H]3C[C@H]4C(=O)N[C@]5(C(=O)NS(=O)(=O)C6(C)CC6)C[C@H]5/C=C/CCCCC[C@H](NC(=O)OC5CC(F)(F)C5)C(=O)N4C3)c(C(F)(F)F)nc2c1"
  parameter: "log10 of Ki"
  observedMeasurement: 1.04
- molecule: "COc1ccc2nc(O[C@@H]3C[C@H]4C(=O)N[C@]5(C(=O)NS(=O)(=O)C6(C)CC6)C[C@H]5/C=C/CCCCC[C@H](NC(=O)OCC5(C(F)(F)F)CC5)C(=O)N4C3)c(C(F)(F)F)nc2c1"
  parameter: "log10 of Ki"
  observedMeasurement: 0.54
- molecule: "COc1ccc2nc(C)c(O[C@@H]3C[C@H]4C(=O)N[C@]5(C(=O)NS(=O)(=O)C6(C)CC6)C[C@H]5/C=C/CCCCC[C@H](NC(=O)OC5CCCC5)C(=O)N4C3)nc2c1"
  parameter: "log10 of Ki"
  observedMeasurement: 0.04
- molecule: "CCC(CC)OC(=O)N[C@H]1CCCCC/C=C/[C@@H]2C[C@@]2(C(=O)NS(=O)(=O)C2(C)CC2)NC(=O)[C@@H]2C[C@@H](Oc3nc4ccc(OC)cc4nc3C(F)(F)F)CN2C1=O"
  parameter: "log10 of Ki"
  observedMeasurement: 0.66
- molecule: "COc1ccc2nc(C)c(O[C@@H]3C[C@H]4C(=O)N[C@]5(C(=O)NS(=O)(=O)C6(C)CC6)C[C@H]5/C=C/CCCCC[C@H](NC(=O)OC(C)(C)C)C(=O)N4C3)nc2c1"
  parameter: "log10 of Ki"
  observedMeasurement: 0.56
- molecule: "COc1ccc2nc(O[C@@H]3C[C@H]4C(=O)N[C@]5(C(=O)NS(=O)(=O)C6(C)CC6)C[C@H]5/C=C/CCCCC[C@H](NC(=O)O[C@@H](C)C(F)(F)F)C(=O)N4C3)c(C(F)(F)F)nc2c1"
  parameter: "log10 of Ki"
  observedMeasurement: 0.89
- molecule: "COc1ccc2nc(C)c(O[C@@H]3C[C@H]4C(=O)N[C@]5(C(=O)NS(=O)(=O)C6(C)CC6)C[C@H]5/C=C/CCCCC[C@H](NC(=O)O[C@H](C)C(C)C)C(=O)N4C3)nc2c1"
  parameter: "log10 of Ki"
  observedMeasurement: 0.18
- molecule: "COc1ccc2nc(O[C@@H]3C[C@H]4C(=O)N[C@]5(C(=O)NS(=O)(=O)C6(C)CC6)C[C@H]5/C=C/CCCCC[C@H](NC(=O)O[C@H](C)C5CC5)C(=O)N4C3)c(C(F)(F)F)nc2c1"
  parameter: "log10 of Ki"
  observedMeasurement: 1.08
